# IC50 per entry
# target_of_assay: hAhR (Homo sapiens)
# Construct: Stably integrated DRE-luciferase cell lines were generated by transducing the both cell lines with Cignal XRE luciferase reporter (Qiagen) lentiviral particles; endogenous in cells
# Sequence (P35869 11-848): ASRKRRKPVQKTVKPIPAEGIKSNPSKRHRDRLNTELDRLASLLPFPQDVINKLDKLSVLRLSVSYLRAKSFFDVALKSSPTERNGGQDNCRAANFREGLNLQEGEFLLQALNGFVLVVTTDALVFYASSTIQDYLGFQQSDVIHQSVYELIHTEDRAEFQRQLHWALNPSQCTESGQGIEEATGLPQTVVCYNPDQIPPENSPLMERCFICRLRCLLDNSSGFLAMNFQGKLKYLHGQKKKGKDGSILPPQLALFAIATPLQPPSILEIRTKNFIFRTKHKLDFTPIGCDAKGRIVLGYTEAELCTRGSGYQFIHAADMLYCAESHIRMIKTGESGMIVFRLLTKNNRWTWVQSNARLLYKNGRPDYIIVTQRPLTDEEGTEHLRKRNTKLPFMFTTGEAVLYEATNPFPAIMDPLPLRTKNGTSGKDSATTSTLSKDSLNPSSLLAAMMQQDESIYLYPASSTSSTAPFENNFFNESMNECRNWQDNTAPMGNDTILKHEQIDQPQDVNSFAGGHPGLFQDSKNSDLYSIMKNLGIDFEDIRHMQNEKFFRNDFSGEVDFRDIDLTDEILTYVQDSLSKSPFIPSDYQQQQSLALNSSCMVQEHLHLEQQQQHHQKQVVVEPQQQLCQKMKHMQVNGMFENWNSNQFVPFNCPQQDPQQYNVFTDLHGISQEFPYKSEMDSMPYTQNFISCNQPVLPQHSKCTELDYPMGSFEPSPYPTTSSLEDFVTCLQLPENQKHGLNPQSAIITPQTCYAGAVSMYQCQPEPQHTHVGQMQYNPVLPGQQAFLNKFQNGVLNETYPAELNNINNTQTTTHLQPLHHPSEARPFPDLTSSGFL
# assay_remarks: AhR DRE-luciferase reporter transcriptional assay, antagonist mode (TCDD-induced)
# condition_description: HEPG2 DRE-Luc cells, 3 nM TCDD, 24 hour incubation, relative IC50

compound_string: Cc1cc(-c2ncc3cc(C(F)(F)F)ccc3n2)ccc1N(C)C(=O)c1ncncc1C
IC50: < 200 nM

compound_string: Cc1cc(-c2ncc3nc(C(F)(F)F)cc(C)c3n2)ccc1N(C)C(=O)c1cc(C(=O)O)nn1CC#N
IC50: 1000 to 10000 nM

compound_string: Cc1cc(-c2ncc3cc(C(F)(F)F)ccc3n2)ccc1N1CCNC1=O
IC50: < 200 nM

compound_string: Cc1cc(-c2ccc3cc(F)cc(C(F)(F)F)c3n2)ccc1NC(=O)c1ccnn1C
IC50: 200 to 500 nM

compound_string: Cc1cc(-c2ncc3cc(C(F)(F)F)ccc3n2)ccc1NC(=O)c1ccncc1C
IC50: < 200 nM

compound_string: Cc1cc(-c2ncc3nc(C(F)(F)F)cc(C)c3n2)ccc1N(C)C(=O)c1cc(C(=O)O)nn1CC(N)=O
IC50: 1000 to 10000 nM

compound_string: Cc1cc(-c2ncc3nc(C(F)(F)F)ccc3n2)c(C)cc1NC(=O)c1ccnn1C
IC50: 1000 to 10000 nM

compound_string: Cc1cc(-c2ccc3cc(C(F)(F)F)ccc3n2)ccc1N(C)C(=O)C(F)(F)F
IC50: 1000 to 10000 nM

Value source: patent US20220340875A1
